# GI50 listing for each entry below
Test system: SK-OV-3
test-details: NCI tumour cell line growth inhibition, 48 h
Active and inactive are the calls of the source. No stated cut-off is given here; in the data, active = GI50 up to about 1.1 µM and inactive = higher.

// worked examples, GI50 included
1) Cc1cc(Cc2cc(C)c(N)cc2N)c(N)cc1N = > 100 µM (inactive)
2) CCOC(=O)/C(=C/c1ccc(OC)cc1)N(CC)CC = > 100 µM (inactive)
3) CN(C(=O)/C=C/c1ccccc1)C1C2CN3CCC(O2)C13 (stereo not given) = > 100 µM (inactive)
4) CN(C)CC(O)c1ccc(Cl)c2ccccc12 (stereo not given) = 74 µM (inactive)
5) CC[C@]1(Cc2ccc(OC)c(OC)c2)C2CC(C(=O)OC)ON2O[C@H](OCc2ccccc2)[C@@H]1OC(C)=O (stereo not given in full) = > 100 µM (inactive)
6) COc1ccc(C(=O)/C=C/c2cc(O)c(O)c(F)c2F)c(OC)c1 = 21.5 µM (inactive)
7) CS(=O)(=O)c1ccc2nc(-c3ccc(O)cc3)sc2c1 = 17.5 µM (inactive)
8) O=C1C=CC(=O)c2c1ccc1c3ccccc3n(-c3ccccc3)c21 = 16.8 µM (inactive)
9) CC(=O)Oc1c(OC(C)C)c(C)c(O[Si](C(C)C)(C(C)C)C(C)C)c2[nH]c3ccccc3c12 = > 100 µM (inactive)

Read the next record carefully.
Input line: Given the entry "O=C(CCc1ccccc1)ON1C(=S)C(c2ccccc2)(c2ccccc2)N=C1Sc1ccccc1" , report its measured GI50.
Output line: 45.1 µM (inactive)

---

System: SF-295
test-details: NCI tumour cell line growth inhibition, 48 h
The source made the active and inactive calls. Rule as the data show it: active = GI50 up to about 1.1 µM and inactive = higher.
measured-quantity: GI50

Please review the entries below; each comes with its answer.
1. CN(C)CCNC(=O)c1cccc2[nH]c(-c3ccncc3)nc12 = 3.02 µM (inactive)
2. CCC1(CC)N=C(C(F)(F)F)c2cc(C(=O)C(F)(F)F)c3ccccc3c2N1 = 3.14 µM (inactive)
3. O=c1oc2c/c(=C\c3ccccc3)c(=O)c3cccc1c3-2 = > 100 µM (inactive)

Input line: Which value of GI50 has been reported for COc1ccc(C2(CC(C)C)CCN(S(=O)(=O)c3ccc(C)cc3)C2)cc1OC (configuration not stated) in the records?
Output line: 36.5 µM (inactive)

Input line: Suppose we examine the compound COc1cc(S(=O)(=O)Nc2ccc(-c3csc(N4C(=O)C(Cl)C4c4ccccc4)n3)cc2)ccc1Cl (configuration not stated) ; what GI50 value has been reported?
Output line: > 100 µM (inactive)

Input line: Given COc1ccc(C(=O)O[C@H]2CC[C@@]3(C)[C@@H]4CC[C@H]5[C@]6(O)C[C@H](O)[C@@]7(O)[C@@H](CN8C[C@@H](C)CC[C@H]8[C@@]7(C)O)[C@]6(O)C[C@@]53OC24O)cc1OC [VERATRIDINE] , state its recorded GI50.
Output line: > 100 µM (inactive)

Input line: Name the recorded GI50 for "CC(C)=CCC/C(C)=C/CC/C(C)=C/CC/C(C)=C/C=C/C=C(\C)CC/C=C(\C)CC/C=C(\C)CCC=C(C)C" .
Output line: > 100 µM (inactive)

Input line: Which GI50 is listed for Cc1ccc2cc3c(ccc4ccccc43)c3c2c1CC3 [3-METHYLCHOLANTHRENE] ?
Output line: > 100 µM (inactive)

Input line: Could you share which GI50 value was measured for "CCCNC1=C2C[C@@H](C)C[C@@H](OC)[C@@H](OC(=O)CCCN)[C@H](C)/C=C(\C)[C@@H](OC(N)=O)[C@H](OC)/C=C\C=C(/C)C(=O)NC(=CC1=O)C2=O" ?
Output line: 18.7 µM (inactive)

Input line: What GI50 value was documented for this compound, COc1cc(/C=C/C(=O)CC(=O)/C=C/c2ccc(OC(=O)CCCCC3CCSS3)c(OC)c2)ccc1OC(=O)CCCCC1CCSS1 (configuration not stated) ?
Output line: > 100 µM (inactive)

Input line: Using the record for CC(=O)OC1(C#N)CC2OC1C1N=NN(C(=O)OC(C)(C)C)C21 (configuration not stated) , report its GI50.
Output line: > 100 µM (inactive)

Input line: I would be grateful if you could share the reported GI50 for "COc1cc(N(CCC#N)CCC#N)ccc1/C=N\NC(=O)c1ccc(C)cc1" .
Output line: > 100 µM (inactive)

---

Tested on: SK-MEL-28
test-details: NCI tumour cell line growth inhibition, 48 h
Activity calls are given as the source filed them. Rule as the data show it: active = GI50 up to about 1.1 µM and inactive = higher.
Items are presented alongside their recorded GI50.

Record excerpt, results attached:
1. COC(=O)C1C(OCc2ccccc2)C2CCC1(OC)C=C2C (stereo not given) = > 100 µM (inactive)
2. O=C1CSC2(CC(/C=C/C=C/c3ccccc3)=NN2c2cccc(S(=O)(=O)O)c2)N1c1nc2ccccc2s1 (stereo not given) = > 100 µM (inactive)

Input line: Look up GI50 for this molecule: CCOC(=O)c1cc(C2(O)CCN(CC(C)CC)C2=O)c(-c2cc(C)no2)[nH]1 (stereo not given)
Output line: > 100 µM (inactive)

Input line: I'd like to know its GI50. The molecule in question is "Oc1[nH]c(Nc2ccc(Cl)cc2)nc2ncnc1-2"
Output line: > 100 µM (inactive)

Input line: Given the entry "Oc1ccc(Cc2cc(Cl)cc(Cl)c2O)cc1Cl" , report its measured GI50.
Output line: 17.3 µM (inactive)

Input line: Name the reported GI50 value associated with the molecule "C#C[C@]1(O)CC[C@H]2[C@@H]3CCc4cc(OC(=O)c5cccc6cc7ccccc7nc56)ccc4[C@H]3CC[C@@]21C"
Output line: 35.9 µM (inactive)

Input line: Would you kindly share the measured GI50 for "Cc1cc(C)c(S(=O)(=O)N(CCCN)OCCCON(CCCN)S(=O)(=O)c2c(C)cc(C)cc2C)c(C)c1" ?
Output line: 1.91 µM (inactive)

Input line: Entry "O=S(=O)(c1ccc2ccccc2c1)N1CCN(S(=O)(=O)c2ccc3ccccc3c2)CC1" has what GI50?
Output line: > 100 µM (inactive)

Input line: Entry N#CC1Sc2ccccc2-n2cccc21 (stereo not given) : reported GI50 = ?
Output line: > 100 µM (inactive)

Input line: What measured GI50 goes with CC(C)[Si](CC1=CCCCC12C(=O)N(COCC[Si](C)(C)C)c1ccccc12)(C(C)C)C(C)C (stereo not given) ?
Output line: 92.5 µM (inactive)

---

Test system: MDA-MB-435
test-details: NCI tumour cell line growth inhibition, 48 h
Activity calls are given as the source filed them. Cut-off read from the data, not from the text of the source: active = GI50 up to about 1.1 µM and inactive = higher.
measured-quantity: GI50

See these solved cases before continuing.
1) COc1cc(C2S/C(=C/c3ccccc3)C(=O)N2c2ccc(Cl)c(Cl)c2)cc(OC)c1OC (stereo not given) = 7.29 µM (inactive)
2) Cc1nn2c(N)cc(=O)nc2nc1/C=C/c1ccc(N(C)C)cc1 = 7.93 µM (inactive)
3) O=C1CSC(c2ccccc2)N1c1ccc(-n2c(-c3ccccc3)nc3ccccc3c2=O)cc1 (stereo not given) = 63.4 µM (inactive)
4) O=C1/C(=C/c2cccc(Cl)c2)CCCc2ccccc21 = 16.2 µM (inactive)
5) COc1ccc(C(=O)c2cc(OC)c(OC)c(OC)c2)cc1 = 0.0197 µM (active)
6) CCCCCCCCCCc1c2nc(c(CCCCCCCCCC)c3ccc([nH]3)c(CCCCCCCCCC)c3nc(c(CCCCCCCCCC)c4ccc1[nH]4)C=C3)C=C2 = > 100 µM (inactive)
7) O=c1oc2c([N+](=O)[O-])cc([N+](=O)[O-])cc2c2ccccc12 = > 100 µM (inactive)
8) COC(=O)CSSCc1ccc([N+](=O)[O-])cc1 = 13.9 µM (inactive)

Input line: Please look up its GI50: "CO[C@](C(=O)OC[C@H]1[C@@H](COC(C)=O)[C@@H]2O[C@H]1c1cc3c(cc12)OCO3)(c1ccccc1)C(F)(F)F"
Output line: 38.5 µM (inactive)

Input line: Entry COc1cc(/C=C/C(=O)CC(=O)/C=C/c2ccc(OC(=O)CCCCC3CCSS3)c(OC)c2)ccc1OC(=O)CCCCC1CCSS1 (stereo not given) : reported GI50 = ?
Output line: > 100 µM (inactive)

---

System: M14
test-details: NCI tumour cell line growth inhibition, 48 h
The source made the active and inactive calls. No stated cut-off is given here; in the data, active = GI50 up to about 1.1 µM and inactive = higher.
Your answer must be one of the following: y for active, n for inactive

Past entries and their recorded results:
1. CC(=O)OCC1OC(n2cnc3c(I)nc(I)nc32)C(OC(C)=O)C1OC(C)=O (stereo not given) = n
2. Cc1ccc2c(c1C)C(=O)C1(Cc3cc4c(cc3C1=O)CCC4)C2 (stereo not given) = n

Input line: Which result was noted for this molecule in the test: N#CC1(Cc2ccccc2Cl)c2ccccc2C=CN1C(=O)c1ccccc1 (stereo not given)
Output line: n

Input line: Recorded test outcome, item CC1(C)C2C=CC1C(=O)CC2 (stereo not given)
Output line: n

---

Test system: HOP-92
test-details: NCI tumour cell line growth inhibition, 48 h
Calls of active or inactive are those of the source. Rule as the data show it: active = GI50 up to about 1.1 µM and inactive = higher.
measured-quantity: GI50

Example entries begin here.
1) COc1ccc(/C(=N/O)c2ccccc2C2=Nc3ccccc3C(NCc3ccccc3)O2)cc1C (configuration not stated) = 20.5 µM (inactive)
2) COc1ccc(C(=O)O[C@H]2CC[C@@]3(C)[C@@H]4CC[C@H]5[C@]6(O)C[C@H](O)[C@@]7(O)[C@@H](CN8C[C@@H](C)CC[C@H]8[C@@]7(C)O)[C@]6(O)C[C@@]53OC24O)cc1OC [VERATRIDINE] = > 100 µM (inactive)
3) COC(=O)NC1C(C)OC(OC2C/C=C(/C)C3C=CC4C(OC5CC(OC6CC(OC7CC(O)C(O)C(C)O7)C(OC7CC(O)C(OC)C(C)O7)C(C)O6)C(O)C(C)O5)C(C)CC(C)C4C3(C)C(=O)C3=C(O)C4(CC(C)C(CO)=CC4/C=C\2C)OC3=O)CC1(C)[N+](=O)[O-] (configuration not stated) = 6.24 µM (inactive)
4) O=[N+]([O-])c1ccc(C2ON=C(c3ccccc3)N2C23CC4CC(CC(C4)C2)C3)cc1 (configuration not stated) = > 10 µM (inactive)
5) C=C([C@@]1(O)C[C@H]2[C@H](CCC2(OC)OC)[C@@H]2c3ccccc3O[C@@H]21)[Si](C)(C)C = 1.78 µM (inactive)

Input line: GI50 for COc1cccc(C2c3cc4c(cc3OC(C)(N3CCCC3)C2C)OCO4)c1 (configuration not stated) ?
Output line: 10.2 µM (inactive)

Input line: What value of measured GI50 is listed for CCOC(=O)C(C)OC(=O)c1ccc(C)cc1 (configuration not stated) ?
Output line: > 100 µM (inactive)

Input line: For the molecule CC[C@]1(Cc2ccc(OC)c(OC)c2)C2CC(C(=O)OC)ON2O[C@H](OCc2ccccc2)[C@@H]1OC(C)=O (some centres not stated) , what GI50 is on record?
Output line: 99.3 µM (inactive)

Input line: What does the record list as GI50 for CCC1(C)NC(c2cnccn2)=NN1c1ccc(Cl)cc1 (configuration not stated) ?
Output line: > 100 µM (inactive)

Input line: Recorded GI50 of "CC(C)(C)N/N=C(\Cc1occc(=O)c1O)C(=O)Nc1ccc([N+](=O)[O-])cc1[N+](=O)[O-]" , please.
Output line: > 100 µM (inactive)

Input line: Entry CN(C)CC(O)c1ccc(Cl)c2ccccc12 (configuration not stated) : reported GI50 = ?
Output line: 14.2 µM (inactive)

Input line: Give the measured GI50 of "Cc1nc(Nc2ccccc2Cl)sc1C(=O)CC(=O)C(N)=O" .
Output line: 7.98 µM (inactive)

Input line: // returns reported GI50 for input "c1cc(-c2csc(-c3ccsc3)c2)cs1"
Output line: > 100 µM (inactive)

Input line: Can you share its GI50? I mean this molecule: "CC(C)=CCC/C(C)=C/CC/C(C)=C/CC/C(C)=C/C=C/C=C(\C)CC/C=C(\C)CC/C=C(\C)CCC=C(C)C"
Output line: 45.5 µM (inactive)
